Source listed as ChEMBL document CHEMBL5724914.

test-name: The drug is tested on WLS-310 corresponding to human gut metagenome with ENA study accession number: PRJEB37062 and ENA sample accession number: ERS12561785 for biotransformation under anaerobic condition. The drug concentrations were measured over 9 timepoints collected between 0 and 24 hours of incubation by liquid-chromatography-coupled mass spectrometry (LC–MS); note: call rule not given here
setup-conditions: 2 µM
measurement-label: Bacterial Biotransformation

INSERT INTO assay_data (compound, measurement_label, value_observed) VALUES
  ('CCc1nn(CCCN2CCN(c3cccc(Cl)c3)CC2)c(=O)n1CCOc1ccccc1 [NEFAZODONE]', 'Bacterial Biotransformation', 'Compound metabolized'),
  ('CN1CCN(CC/C=C2/c3ccccc3Sc3ccc(S(=O)(=O)N(C)C)cc32)CC1 [THIOTHIXENE]', 'Bacterial Biotransformation', 'Compound metabolized'),
  ('CC(Oc1c(Cl)cccc1Cl)C1=NCCN1 (stereo unspecified) [LOFEXIDINE]', 'Bacterial Biotransformation', 'Compound metabolized'),
  ('O=C(O)COCCN1CCN(C(c2ccccc2)c2ccc(Cl)cc2)CC1 (stereo unspecified) [CETIRIZINE]', 'Bacterial Biotransformation', 'Compound metabolized'),
  ('CCOc1ccc(NC(C)=O)cc1 [PHENACETIN]', 'Bacterial Biotransformation', 'Compound NOT metabolized'),
  ('O=C(O)CCc1nc(-c2ccccc2)c(-c2ccccc2)o1 [OXAPROZIN]', 'Bacterial Biotransformation', 'Compound metabolized'),
  ('CN1CCN(C(=O)O[C@H]2c3nccnc3C(=O)N2c2ccc(Cl)cn2)CC1 [ESZOPICLONE]', 'Bacterial Biotransformation', 'Compound NOT metabolized'),
  ('CCCc1nc(C(C)(C)O)c(C(=O)OCc2oc(=O)oc2C)n1Cc1ccc(-c2ccccc2-c2nnn[nH]2)cc1 [OLMESARTAN MEDOXOMIL]', 'Bacterial Biotransformation', 'Compound metabolized'),
  ('Cc1nc2n(c(=O)c1CCN1CCC(c3noc4cc(F)ccc34)CC1)CCCC2 [RISPERIDONE]', 'Bacterial Biotransformation', 'Compound metabolized'),
  ('COc1ccc2c3c1O[C@H]1C[C@@H](O)C=C[C@@]31CCN(C)C2 [GALANTAMINE]', 'Bacterial Biotransformation', 'Compound metabolized'),
  ('CN1CCc2c(c3ccccc3n2Cc2ccccc2)C1.CN1CCc2c(c3ccccc3n2Cc2ccccc2)C1.O=S(=O)(O)c1cccc2c(S(=O)(=O)O)cccc12', 'Bacterial Biotransformation', 'Compound NOT metabolized');
